- Test system: Chaetomium globosum
- PROTOCOL: Inhibition of hypha growth on malt extract agar, Chaetomium globosum
- MEASUREMENT_PARAMETERS: read-out: Controlling effect (growth inhibition rate) CHG
This section presents compounds with their documented inhibition at 50 ppm values.
Dear colleague, please return just the value in %, with no unit written.

chemical_structure=N#Cc1c(OC(F)F)nsc1S(=O)(=O)c1ccc(Cl)cc1 metric_name="inhibition at 50 ppm" result_value=100

Problem: Which inhibition at 50 ppm is listed for "COc1nsc(S(=O)(=O)c2c(C)cc(C)cc2C)c1C#N" ?
Solution: 100

###

This section presents compounds with their documented inhibition at 50 ppm values.
- Test system: Rhizopus nigricans
- PROTOCOL: Inhibition of hypha growth on malt extract agar, Rhizopus nigricans
- MEASUREMENT_PARAMETERS: Rhizopus stolonifer, read-out: Controlling effect (growth inhibition rate) RHS

Recorded results for 4 compounds are shown here.
chemical_structure=C#CCOc1nsc(S(=O)(=O)C(F)F)c1C#N metric_name="inhibition at 50 ppm" result_value=100%
chemical_structure=CC(C)(C)c1ccc(S(=O)(=O)c2snc(OC(F)F)c2C#N)cc1 metric_name="inhibition at 50 ppm" result_value=100%
chemical_structure=CC(C)(C)S(=O)(=O)c1snc(OC(F)F)c1C#N metric_name="inhibition at 50 ppm" result_value=100%
chemical_structure=N#Cc1c(OC(F)F)nsc1S(=O)(=O)c1ccc(Cl)cc1 metric_name="inhibition at 50 ppm" result_value=100%

Consider now this further compound.
Problem: Which inhibition at 50 ppm is listed for "COc1nsc(S(=O)(=O)c2ccccc2)c1C#N" ?
Solution: 100%

###

This section presents molecules with their documented pest or weed control at 200 ppm values.
- Test system: Botrytis cinerea
- PROTOCOL: Controlling effect (curing effect) on cucumber gray mold
- Type: in vivo
- MEASUREMENT_PARAMETERS: 72 h, immersion of inoculated cotyledons, 15° C., read-out: Controlling effect Bc (cucumber gray mold)

molecule=CCS(=O)(=O)c1snc(OC(F)F)c1C#N result_value="60 to 79%"
molecule=CCS(=O)(=O)c1snc(OC)c1C#N result_value="0 to 59%"
molecule=COc1nsc(S(=O)(=O)C(C)C)c1C#N result_value="0 to 59%"
molecule=CCOC(=O)c1ccccc1S(=O)(=O)c1snc(O)c1C#N result_value="0 to 59%"

Problem: Which pest or weed control at 200 ppm is listed for C#CCOc1nsc([S+](C)[O-])c1C#N (stereo not shown) ?
Solution: 60 to 79%

Problem: Which pest or weed control at 200 ppm is listed for "C#CCOc1nsc(S(=O)(=O)CC)c1C#N" ?
Solution: 0 to 59%

Problem: Which pest or weed control at 200 ppm is listed for "CCOc1nsc(S(=O)(=O)CC)c1C#N" ?
Solution: 60 to 79%

Problem: Which pest or weed control at 200 ppm is listed for "CS(=O)(=O)c1snc(OC(F)F)c1C#N" ?
Solution: 0 to 59%

Problem: Which pest or weed control at 200 ppm is listed for "CCOc1nsc(S(=O)(=O)C(C)C)c1C#N" ?
Solution: 60 to 79%

Problem: Which pest or weed control at 200 ppm is listed for "COc1nsc(S(=O)(=O)c2ccc(C)cc2)c1C#N" ?
Solution: 60 to 79%

Problem: Which pest or weed control at 200 ppm is listed for "C#CCOc1nsc(S(=O)(=O)c2ccccc2)c1C#N" ?
Solution: 60 to 79%

Problem: Which pest or weed control at 200 ppm is listed for "CC(C)Oc1nsc(S(C)(=O)=O)c1C#N" ?
Solution: 0 to 59%

Problem: Which pest or weed control at 200 ppm is listed for "CCOc1nsc(S(C)(=O)=O)c1C#N" ?
Solution: 60 to 79%

Problem: Which pest or weed control at 200 ppm is listed for "COc1nsc(S(=O)(=O)C(F)F)c1C#N" ?
Solution: 95 to 100%

Problem: Which pest or weed control at 200 ppm is listed for "CC(C)S(=O)(=O)c1snc(OC(F)F)c1C#N" ?
Solution: 0 to 59%

Problem: Which pest or weed control at 200 ppm is listed for "COc1nsc(S(C)(=O)=O)c1C#N" ?
Solution: 60 to 79%

Problem: Which pest or weed control at 200 ppm is listed for "N#Cc1c(O)nsc1S(=O)(=O)c1ccccc1" ?
Solution: 0 to 59%

Problem: Which pest or weed control at 200 ppm is listed for "C#CCOc1nsc(S(=O)(=O)C(F)F)c1C#N" ?
Solution: 60 to 79%

Problem: Which pest or weed control at 200 ppm is listed for "COc1nsc(S(=O)(=O)c2ccc(Cl)cc2)c1C#N" ?
Solution: 60 to 79%

Problem: Which pest or weed control at 200 ppm is listed for "C=CCOc1nsc(S(C)(=O)=O)c1C#N" ?
Solution: 0 to 59%

Problem: Which pest or weed control at 200 ppm is listed for "CC(C)Oc1nsc(S(=O)(=O)C(F)F)c1C#N" ?
Solution: 95 to 100%

Problem: Which pest or weed control at 200 ppm is listed for "CCCCS(=O)(=O)c1snc(OC(C)C)c1C#N" ?
Solution: 60 to 79%
